Readings of IC50 for the listed molecules
# TESTED TARGET: UniProtKB P05164
# METHOD SUMMARY: MPO chlorination assay (APF assay)
# Type: biochemical
# CONDITION LABEL: potency range class

>>> print(df.to_string())
                                   molecule       measured
0  Nc1cc(Cc2cnn(Cc3cc(F)cc([C@@H]4CCNC4)c3)c2)c2nn[nH]c2n1 [Example 195]    1 to 100 nM
1  CN1CCc2cc(Cn3cc(Cc4cc(N)nc5[nH]nnc45)cn3)ccc2C1 [Example 159]  101 to 999 nM
2  Nc1cc(Cc2cnn(Cc3ccc4c(c3)CCN(C(=O)c3ncc[nH]3)C4)c2)c2nn[nH]c2n1 [Example 131]  101 to 999 nM

Query string: What value of measured IC50 is listed for Nc1cc(Cc2cnn(Cc3ccc4c(c3)CNC4)c2)c2nn[nH]c2n1 [Example 176] ?
Result string: 1 to 100 nM

Query string: What value of measured IC50 is listed for Nc1cc(Cc2cnn(CC3CCN(Cc4ccccc4)C3)c2)c2nn[nH]c2n1 (centres unmarked) [Example 184] ?
Result string: 101 to 999 nM

Query string: What value of measured IC50 is listed for NC(=O)CNC(=O)c1ccc(Cn2cc(Cc3cc(N)nc4[nH]nnc34)cn2)cc1 [Example 90] ?
Result string: 101 to 999 nM

Query string: What value of measured IC50 is listed for N#Cc1ccc(Cn2cc(Cc3cc(N)nc4[nH]nnc34)cn2)cc1F [Example 272] ?
Result string: 101 to 999 nM

Query string: What value of measured IC50 is listed for Nc1cc(Cc2cnn(Cc3cccc(N4CCNC(C(F)(F)F)C4)c3)c2)c2nn[nH]c2n1 (centres unmarked) [Example 222] ?
Result string: 101 to 999 nM

Query string: What value of measured IC50 is listed for Nc1cc(Cc2cnn(Cc3cccc(N4CCNCC4)c3)c2)c2nn[nH]c2n1 [Example 217] ?
Result string: 101 to 999 nM

Query string: What value of measured IC50 is listed for CN1CCC(c2cccc(Cn3cc(Cc4cc(N)nc5[nH]nnc45)cn3)c2)CC1 [Example 209] ?
Result string: 101 to 999 nM

Query string: What value of measured IC50 is listed for CC(C)(C)OC(=O)N1CCCc2ccc(Cn3cc(Cc4cc(N)nc5[nH]nnc45)cn3)cc21 [Example 147] ?
Result string: 101 to 999 nM

---

# TESTED TARGET: myeloperoxidase (MPO) (Homo sapiens (Human), UniProt P05164)
# Sequence (P05164 49-745): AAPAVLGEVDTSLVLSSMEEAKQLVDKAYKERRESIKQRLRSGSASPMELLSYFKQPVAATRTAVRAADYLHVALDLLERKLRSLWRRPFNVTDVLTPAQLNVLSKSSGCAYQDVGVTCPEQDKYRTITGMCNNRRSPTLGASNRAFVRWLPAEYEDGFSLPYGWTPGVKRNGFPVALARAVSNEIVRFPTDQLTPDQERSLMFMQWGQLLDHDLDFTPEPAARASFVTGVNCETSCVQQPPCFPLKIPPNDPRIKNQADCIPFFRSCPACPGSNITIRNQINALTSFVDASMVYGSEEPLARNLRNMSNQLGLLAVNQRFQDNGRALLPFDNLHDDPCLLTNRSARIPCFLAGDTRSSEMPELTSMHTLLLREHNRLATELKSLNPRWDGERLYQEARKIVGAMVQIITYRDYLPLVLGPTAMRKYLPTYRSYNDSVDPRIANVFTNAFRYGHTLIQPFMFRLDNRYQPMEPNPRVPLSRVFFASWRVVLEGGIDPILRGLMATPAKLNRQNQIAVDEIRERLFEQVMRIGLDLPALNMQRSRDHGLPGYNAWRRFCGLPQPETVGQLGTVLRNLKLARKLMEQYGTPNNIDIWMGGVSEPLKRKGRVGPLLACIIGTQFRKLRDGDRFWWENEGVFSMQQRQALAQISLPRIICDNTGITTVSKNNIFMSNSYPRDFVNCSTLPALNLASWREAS
# METHOD SUMMARY: MPO chlorination assay (APF assay)
# Format: biochemical
# CONDITION LABEL: potency range class
PROPERTY: IC50

                           structure_string       measured
0  CCCNC(=O)c1ccc(Cn2cc(Cc3cc(N)nc4[nH]nnc34)cn2)cc1  101 to 999 nM
1  Nc1cc(Cc2cnn(Cc3ccc4c(c3)CNCC4)c2)c2nn[nH]c2n1    1 to 100 nM
2  Nc1cc(Cc2cnn(-c3cccc(Cc4ccccc4)c3)c2)c2nn[nH]c2n1  101 to 999 nM

Query string: What value of measured IC50 is listed for "Nc1cc(Cc2cnn(CC3CCN(C(=O)OCc4ccccc4)CC3)c2)c2nn[nH]c2n1" ?
Result string: 101 to 999 nM

Query string: What value of measured IC50 is listed for "Nc1cc(Cc2cnn(-c3cccc(-c4ccccc4)c3)c2)c2nn[nH]c2n1" ?
Result string: 1 to 100 nM

Query string: What value of measured IC50 is listed for "Nc1cc(Cc2cnn(Cc3ccc(C(=O)NCc4ccccn4)cc3)c2)c2nn[nH]c2n1" ?
Result string: 101 to 999 nM

Query string: What value of measured IC50 is listed for "Nc1cc(Cc2cnn(Cc3cc(Cl)cc([C@@H]4CCNC4)c3)c2)c2nn[nH]c2n1" ?
Result string: 1 to 100 nM

Query string: What value of measured IC50 is listed for "Nc1cc(Cc2cnn(Cc3cccc(CN4CCNCC4)c3)c2)c2nn[nH]c2n1" ?
Result string: 101 to 999 nM

---

# TESTED TARGET: myeloperoxidase (MPO) (Homo sapiens (Human), UniProt P05164)
# METHOD SUMMARY: MPO peroxidation assay (Amplex Red assay)
# Format: biochemical
# CONDITION LABEL: potency range class
pIC50: −log10 of the molar value.
Readings of pIC50 for the listed compounds

Solved entries:
>>> df
                                   compound      measured
0     Nc1cc(Cn2nnc3cccc(Cl)c32)c2nn[nH]c2n1  6.00 to 7.00
1  Nc1cc(Cc2cnn(C(CCO)c3ccccc3)c2)c2nn[nH]c2n1 (stereo not drawn)  6.00 to 7.00
2  Nc1cc(Cc2cnn(Cc3cccc(-c4nccs4)c3)c2)c2nn[nH]c2n1  7.00 to 9.00
3  CC1CCN(S(=O)(=O)c2cccc(Cn3cc(Cc4cc(N)nc5[nH]nnc45)cn3)c2)CC1  7.00 to 9.00
4  Nc1cc(Cc2cnn(C(CCCO)c3ccccc3)c2)c2nn[nH]c2n1 (stereo not drawn)  6.00 to 7.00
5  Cn1nc(Cn2cc(Cc3cc(N)nc4[nH]nnc34)cn2)c2ccccc21  7.00 to 9.00
6  Nc1cc(Cc2cnn(Cc3ccc(C(=O)NCc4ccccn4)cc3)c2)c2nn[nH]c2n1  7.00 to 9.00
7  Nc1cc(Cc2cnn(Cc3ccc(CNC(=O)CN4CCCC4)cc3)c2)c2nn[nH]c2n1  6.00 to 7.00
8  Nc1cc(Cc2cnn(Cc3cccc(C4CCNCC4)c3)c2C(F)(F)F)c2nn[nH]c2n1  7.00 to 9.00
9  Nc1cc(Cc2cnn(Cc3ccc(C(F)(F)F)cc3)c2)c2nn[nH]c2n1  6.00 to 7.00

Query string: What value of measured pIC50 is listed for CC1CNCCC1c1cccc(Cn2cc(Cc3cc(N)nc4[nH]nnc34)cn2)c1 (stereo not drawn) ?
Result string: 7.00 to 9.00

Query string: What value of measured pIC50 is listed for "CC(C)(C)c1ccc(Cn2cc(Cc3cc(N)nc4[nH]nnc34)cn2)cc1" ?
Result string: 7.00 to 9.00

Query string: What value of measured pIC50 is listed for "Nc1cc(Cc2cnn(Cc3cccc(C4CCNCC4)c3)c2)c2nn[nH]c2n1" ?
Result string: 7.00 to 9.00

Query string: What value of measured pIC50 is listed for "Nc1cc(Cc2cnn(CCC3CCNCC3)c2)c2nn[nH]c2n1" ?
Result string: 7.00 to 9.00

Query string: What value of measured pIC50 is listed for "CNc1nc2ccc(Cn3cc(Cc4cc(N)nc5[nH]nnc45)cn3)cc2s1" ?
Result string: 7.00 to 9.00

---

# TESTED TARGET: UniProtKB P05164
# METHOD SUMMARY: MPO chlorination assay (APF assay)
# Type: biochemical
# CONDITION LABEL: potency range class
PROPERTY: IC50

Solved entries:
>>> print(df.to_string())
                                   compound       measured
0  C[C@@H]1CN(c2cccc(Cn3cc(Cc4cc(N)nc5[nH]nnc45)cn3)c2)C[C@H](C)O1  101 to 999 nM
1  Nc1cc(Cc2cnn(C[C@H]3C[C@H](Oc4ccc(F)cc4)CN3)c2)c2nn[nH]c2n1    1 to 100 nM
2  Nc1cc(Cc2cnn(Cc3ccc4ncsc4c3)c2)c2nn[nH]c2n1  101 to 999 nM
3  Nc1cc(Cc2cnn(Cc3cccc(-c4ccccn4)c3)c2)c2nn[nH]c2n1    1 to 100 nM
4  Nc1cc(Cc2cnn(Cc3ccc4cc[nH]c(=O)c4c3)c2)c2nn[nH]c2n1  101 to 999 nM
5  Nc1cc(Cc2cnn(Cc3ccc(C(=O)NCc4ccc(=O)[nH]c4)cc3)c2)c2nn[nH]c2n1  101 to 999 nM
6    Nc1cc(Cc2cnn(Cc3cccnc3)c2)c2nn[nH]c2n1  101 to 999 nM
7  Nc1cc(Cc2cnn(Cc3cccc(CC4CCNCC4)c3)c2)c2nn[nH]c2n1  101 to 999 nM
8  COc1nccc2ccc(Cn3cc(Cc4cc(N)nc5[nH]nnc45)cn3)cc12  101 to 999 nM
9    Nc1cc(Cc2cnn(-c3ccccn3)c2)c2nn[nH]c2n1    1 to 100 nM

# context switch: different compound, same IC50
Query string: What value of measured IC50 is listed for "COc1ccc(Cn2cc(Cc3cc(N)nc4[nH]nnc34)cn2)cc1" ?
Result string: 1 to 100 nM
